measurementTarget: Human T-type calcium channel (Cav 3.2) (Homo sapiens)
Construct: Edward Perez-Reyes, University of Virginia, USA
assayDetails: Calcium Influx Inhibition Assay
experimentalSetup: human T-type calcium channel (Cav 3.2) expressing HEK293 cells; FLIPR Calcium 4 fluorescence; 30 min compound incubation; read-out: T-type calcium channel inhibition concentration IC50
measurementKind: log10 IC50 (log10 of the value in nM)
The base-10 logarithm of IC50, taken with IC50 in nM, is what appears here.

Some compounds with recorded log10 IC50:
Cc1cc(C2=CCN(c3cnn(Cc4cnc(C(F)(F)F)s4)c(=O)n3)C[C@@H]2O)cs1 [Synthesis Example 12]; 1.41
CC(C)(C)c1ccc(Cn2ncc(N3CC=C(c4ccc(F)cc4)[C@@H](O)C3)nc2=O)s1 [Synthesis Example 48]; 0.81
O=c1nc(N2Cc3ccc(OC(F)F)cc3C(O)C2)cnn1Cc1cnc(C(F)(F)F)s1 (stereo not shown) [Synthesis Example 55]; 3.00
Cc1ccc(N2CCN(c3cnn(Cc4cnc(C(F)(F)F)s4)c(=O)n3)CC2)nc1 [Synthesis Example 13]; 3.79
O=c1nc(N2CCc3c([nH]c4cc(F)ccc34)C2)cnn1Cc1cnc(C(F)(F)F)s1 [Synthesis Example 14]; 1.59

Query :: # input compound: CCCCCCOc1ccc(Cn2ncc(N3CCN(c4ccc(F)cc4)CC3)nc2=O)cc1 [Synthesis Example 2] ; wanted: its log10 IC50
Result :: 1.58

Query :: # input compound: O=c1nc(N2CCN(c3ccc(Cl)cc3)CC2)cnn1Cc1cnc(C(F)(F)F)s1 [Synthesis Example 20] ; wanted: its log10 IC50
Result :: 2.28

----------
Recorded pIC50 values for a group of compounds are listed next.
measurementTarget: Human T-type calcium channel (Cav 3.2) (Homo sapiens, UniProt O95180)
Construct: Edward Perez-Reyes, University of Virginia, USA
Sequence (O95180 whole entry): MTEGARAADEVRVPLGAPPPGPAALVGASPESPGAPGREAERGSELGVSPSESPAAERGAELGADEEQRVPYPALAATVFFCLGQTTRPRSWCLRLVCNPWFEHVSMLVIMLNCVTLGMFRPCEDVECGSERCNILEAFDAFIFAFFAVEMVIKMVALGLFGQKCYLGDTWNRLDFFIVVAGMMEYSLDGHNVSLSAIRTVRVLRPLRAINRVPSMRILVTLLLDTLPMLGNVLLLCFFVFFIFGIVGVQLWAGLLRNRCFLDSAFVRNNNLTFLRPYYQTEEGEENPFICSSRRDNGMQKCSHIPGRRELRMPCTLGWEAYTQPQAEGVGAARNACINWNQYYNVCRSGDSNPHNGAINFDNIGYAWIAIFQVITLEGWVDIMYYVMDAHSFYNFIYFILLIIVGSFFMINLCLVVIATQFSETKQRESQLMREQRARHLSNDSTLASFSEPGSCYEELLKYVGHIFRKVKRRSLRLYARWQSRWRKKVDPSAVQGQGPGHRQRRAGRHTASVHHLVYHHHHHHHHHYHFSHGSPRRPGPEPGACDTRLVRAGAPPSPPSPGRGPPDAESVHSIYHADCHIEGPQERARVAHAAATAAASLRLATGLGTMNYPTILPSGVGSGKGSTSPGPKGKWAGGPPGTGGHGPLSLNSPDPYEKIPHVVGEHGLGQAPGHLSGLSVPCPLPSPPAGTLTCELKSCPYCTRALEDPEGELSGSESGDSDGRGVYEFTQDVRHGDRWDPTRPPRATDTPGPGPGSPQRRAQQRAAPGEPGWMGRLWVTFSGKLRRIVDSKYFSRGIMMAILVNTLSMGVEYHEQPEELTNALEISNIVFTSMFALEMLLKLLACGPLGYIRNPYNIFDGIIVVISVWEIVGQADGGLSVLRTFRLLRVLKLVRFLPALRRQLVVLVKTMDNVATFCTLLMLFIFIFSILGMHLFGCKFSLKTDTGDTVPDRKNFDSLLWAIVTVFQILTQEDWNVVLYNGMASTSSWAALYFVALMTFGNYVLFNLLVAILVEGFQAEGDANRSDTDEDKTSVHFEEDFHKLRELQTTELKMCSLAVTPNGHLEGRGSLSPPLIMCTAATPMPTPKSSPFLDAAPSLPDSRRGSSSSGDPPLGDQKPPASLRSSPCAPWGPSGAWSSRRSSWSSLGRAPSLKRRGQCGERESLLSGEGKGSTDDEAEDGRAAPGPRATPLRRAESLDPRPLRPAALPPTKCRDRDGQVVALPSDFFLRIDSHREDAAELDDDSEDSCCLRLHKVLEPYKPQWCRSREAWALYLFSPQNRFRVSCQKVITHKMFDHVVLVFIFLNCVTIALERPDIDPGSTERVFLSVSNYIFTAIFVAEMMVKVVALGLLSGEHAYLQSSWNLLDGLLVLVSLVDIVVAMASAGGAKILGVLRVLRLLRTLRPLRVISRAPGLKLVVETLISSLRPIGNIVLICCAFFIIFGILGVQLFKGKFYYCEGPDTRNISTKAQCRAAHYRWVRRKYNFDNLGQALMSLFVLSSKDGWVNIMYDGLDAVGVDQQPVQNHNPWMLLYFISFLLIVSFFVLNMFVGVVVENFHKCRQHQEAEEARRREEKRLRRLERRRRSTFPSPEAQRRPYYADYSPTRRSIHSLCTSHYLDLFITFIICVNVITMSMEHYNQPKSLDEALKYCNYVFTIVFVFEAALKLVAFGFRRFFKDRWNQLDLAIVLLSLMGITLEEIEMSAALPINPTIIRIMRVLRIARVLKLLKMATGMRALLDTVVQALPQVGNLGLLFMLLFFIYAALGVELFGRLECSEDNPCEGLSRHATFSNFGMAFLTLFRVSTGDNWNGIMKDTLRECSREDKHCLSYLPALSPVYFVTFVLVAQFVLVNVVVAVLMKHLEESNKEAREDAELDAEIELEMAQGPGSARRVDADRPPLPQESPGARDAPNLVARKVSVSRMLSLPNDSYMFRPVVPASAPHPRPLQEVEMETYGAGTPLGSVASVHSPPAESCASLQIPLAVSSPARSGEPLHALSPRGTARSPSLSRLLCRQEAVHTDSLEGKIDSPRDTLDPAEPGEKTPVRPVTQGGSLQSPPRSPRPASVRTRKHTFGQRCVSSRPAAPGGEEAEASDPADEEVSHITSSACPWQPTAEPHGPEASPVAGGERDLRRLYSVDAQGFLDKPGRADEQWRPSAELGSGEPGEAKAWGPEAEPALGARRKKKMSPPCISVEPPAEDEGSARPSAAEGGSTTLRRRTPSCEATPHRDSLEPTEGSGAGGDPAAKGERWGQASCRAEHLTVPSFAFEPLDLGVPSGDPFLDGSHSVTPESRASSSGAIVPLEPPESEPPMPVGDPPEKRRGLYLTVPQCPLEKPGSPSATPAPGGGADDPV
assayDetails: Calcium Influx Inhibition Assay
experimentalSetup: human T-type calcium channel (Cav 3.2) expressing HEK293 cells; FLIPR Calcium 4 fluorescence; 30 min compound incubation; read-out: T-type calcium channel inhibition concentration IC50
Note on pIC50: it is the negative log10 of concentration, concentration in mol/L.

Some compounds with recorded pIC50:
Cc1ccc(C2=CCN(c3cnn(Cc4cnc(C(F)(F)F)s4)c(=O)n3)C[C@@H]2O)cc1F [Synthesis Example 45]; 6.89
Cc1csc(C2=CCN(c3cnn(Cc4cnc(C(F)(F)F)s4)c(=O)n3)C[C@@H]2O)c1 [Synthesis Example 17]; 6.70
Cc1nc(N2CCN(c3cnn(Cc4ccc(C(F)(F)F)s4)c(=O)n3)CC2)ccc1F [Synthesis Example 33]; 7.49
CCOc1ccc2c(c1)C(O)CN(c1cnn(Cc3cnc(C(F)(F)F)s3)c(=O)n1)C2 (stereo not shown) [Synthesis Example 18]; 5.54
O=c1nc(N2CC=C(c3ccc(F)cc3)[C@@H](O)C2)cnn1Cc1ccc(OC(F)F)nc1 [Synthesis Example 28]; 7.03

Query :: Hello, I am looking for reported pIC50 with Human T-type calcium channel (Cav 3.2) (Homo sapiens, UniProt O95180) for O=c1nc(N2Cc3ccc(O)cc3C(O)C2)cnn1Cc1ccc(C(F)(F)F)s1 (stereo not shown) [Synthesis Example 25] . Could you help?
Result :: 5.74

Query :: Hello, I am looking for reported pIC50 with Human T-type calcium channel (Cav 3.2) (Homo sapiens, UniProt O95180) for O=c1nc(N2CC=C(c3ccc(F)cc3)C(F)C2)cnn1Cc1ccc(C(F)(F)F)s1 (stereo not shown) [Synthesis Example 35] . Could you help?
Result :: 7.51
